# System: coxsackie B2 virus
# assay-explanation: In vitro CPE assay in mammalian cell culture, B2
# Assay type: cell-based
# condition-description: viral cytopathic effect in mammalian cell culture, read-out: B2 inhibition capacity (IC50)
pIC50: −log10 of the molar value.
quantity-name: pIC50

Solved entries:
| compound | tested-system | quantity-name | assay-result |
| --- | --- | --- | --- |
| Cc1cc(NCc2ccc(NS(C)(=O)=O)cc2)n2nc(C)c(-c3ccc4c(c3)c(C)nn4C)c2n1 [Example 16] | coxsackie B2 virus | pIC50 | > 6.00 |
| Cc1cc(NCc2ccc(Cl)cc2)c2nc(C)c(-c3ccc4c(c3)c(C)nn4C)n2n1 [Example 3] | coxsackie B2 virus | pIC50 | > 6.00 |
| Cc1cc(NCc2ccc(S(C)(=O)=O)cc2)n2nc(C)c(-c3ccc4c(c3)c(C)nn4C)c2n1 [Example 12] | coxsackie B2 virus | pIC50 | > 8.00 |

(Q) Fill blank: measured pIC50 of the compound Cc1cc(NCc2ccncc2)c2nc(C)c(-c3ccc4c(c3)c(C)nn4C)n2n1 [Example 1] is ____.
(A) > 8.00
